assay: Selectivity ratio of IC50 for human NCI-H226 cells to IC50 for human MKN45 cells; type: ADME, cell-based
property.label: Ratio IC50

Quick note, Ratio IC50 for "Fc1ccc(-c2cnc3nnc(C(F)(F)c4ccc5ncccc5c4)n3n2)cc1" landed at > 10000

---

test: Selectivity ratio of IC50 for human MGC803 cells to IC50 for human EBC1 cells; assay type: ADME, cell-based; settings: mgc-803
property.label: Ratio IC50

Quick note, Ratio IC50 for "Fc1ccc(-c2cnc3nnc(C(F)(F)c4ccc5ncccc5c4)n3n2)cc1" landed at > 10000

---

assay: Selectivity ratio of IC50 for human MDA-MB-231 cells to IC50 for mouse BAF3 cells expressing TPR-MET; format: ADME, cell-based
property.label: Ratio IC50

Quick note, Ratio IC50 for "Fc1ccc(-c2cnc3nnc(C(F)(F)c4ccc5ncccc5c4)n3n2)cc1" landed at > 10000
